- Target Under Test: WIZ protein (HiBit-WIZ fusion protein) (Homo sapiens, UniProt O95785+Q96SW2)
- Construct: expressed in transfected cells
- Sequence (O95785 whole entry, the tested form may be a part): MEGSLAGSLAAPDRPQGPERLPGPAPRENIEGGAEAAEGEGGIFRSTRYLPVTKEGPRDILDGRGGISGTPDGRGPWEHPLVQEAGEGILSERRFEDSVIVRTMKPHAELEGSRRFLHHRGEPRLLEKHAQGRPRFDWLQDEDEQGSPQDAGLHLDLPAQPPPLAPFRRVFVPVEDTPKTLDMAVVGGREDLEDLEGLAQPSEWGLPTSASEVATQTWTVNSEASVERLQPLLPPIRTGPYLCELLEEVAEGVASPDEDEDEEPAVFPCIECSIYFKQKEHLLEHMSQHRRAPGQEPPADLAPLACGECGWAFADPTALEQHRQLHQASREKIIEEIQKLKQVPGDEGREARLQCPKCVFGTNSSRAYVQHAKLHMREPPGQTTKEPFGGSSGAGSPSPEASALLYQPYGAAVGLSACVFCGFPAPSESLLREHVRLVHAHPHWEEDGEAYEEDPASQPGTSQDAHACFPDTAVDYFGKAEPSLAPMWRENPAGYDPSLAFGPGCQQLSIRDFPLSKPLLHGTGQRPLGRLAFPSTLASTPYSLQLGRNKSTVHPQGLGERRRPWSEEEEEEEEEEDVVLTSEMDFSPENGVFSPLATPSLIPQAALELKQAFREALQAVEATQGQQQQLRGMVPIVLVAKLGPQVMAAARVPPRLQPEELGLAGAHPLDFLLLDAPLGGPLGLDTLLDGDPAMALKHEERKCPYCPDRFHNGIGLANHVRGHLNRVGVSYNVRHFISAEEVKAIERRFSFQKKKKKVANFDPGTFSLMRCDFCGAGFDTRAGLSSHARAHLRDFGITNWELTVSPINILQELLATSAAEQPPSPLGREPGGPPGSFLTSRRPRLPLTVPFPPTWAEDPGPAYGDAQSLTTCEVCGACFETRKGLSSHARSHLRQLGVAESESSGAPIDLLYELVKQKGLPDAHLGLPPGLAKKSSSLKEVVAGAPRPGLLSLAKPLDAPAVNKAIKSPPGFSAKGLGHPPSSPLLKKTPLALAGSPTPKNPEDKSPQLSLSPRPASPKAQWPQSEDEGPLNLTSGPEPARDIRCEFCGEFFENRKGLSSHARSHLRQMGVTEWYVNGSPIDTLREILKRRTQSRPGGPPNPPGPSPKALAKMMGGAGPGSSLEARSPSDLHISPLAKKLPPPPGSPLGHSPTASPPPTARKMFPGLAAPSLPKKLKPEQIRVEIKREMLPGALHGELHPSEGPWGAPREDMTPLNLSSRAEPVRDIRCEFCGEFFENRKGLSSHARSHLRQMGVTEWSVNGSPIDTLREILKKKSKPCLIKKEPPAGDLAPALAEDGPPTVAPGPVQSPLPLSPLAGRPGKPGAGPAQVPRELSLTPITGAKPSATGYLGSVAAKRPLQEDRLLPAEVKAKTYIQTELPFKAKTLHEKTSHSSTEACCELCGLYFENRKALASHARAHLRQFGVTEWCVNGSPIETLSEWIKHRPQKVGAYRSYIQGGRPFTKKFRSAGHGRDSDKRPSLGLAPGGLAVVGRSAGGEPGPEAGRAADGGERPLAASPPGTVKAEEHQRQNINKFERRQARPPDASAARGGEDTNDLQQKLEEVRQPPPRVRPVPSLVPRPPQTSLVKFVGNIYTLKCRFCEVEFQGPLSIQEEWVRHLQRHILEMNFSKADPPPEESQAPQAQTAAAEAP
- Sequence (Q96SW2 whole entry, the tested form may be a part): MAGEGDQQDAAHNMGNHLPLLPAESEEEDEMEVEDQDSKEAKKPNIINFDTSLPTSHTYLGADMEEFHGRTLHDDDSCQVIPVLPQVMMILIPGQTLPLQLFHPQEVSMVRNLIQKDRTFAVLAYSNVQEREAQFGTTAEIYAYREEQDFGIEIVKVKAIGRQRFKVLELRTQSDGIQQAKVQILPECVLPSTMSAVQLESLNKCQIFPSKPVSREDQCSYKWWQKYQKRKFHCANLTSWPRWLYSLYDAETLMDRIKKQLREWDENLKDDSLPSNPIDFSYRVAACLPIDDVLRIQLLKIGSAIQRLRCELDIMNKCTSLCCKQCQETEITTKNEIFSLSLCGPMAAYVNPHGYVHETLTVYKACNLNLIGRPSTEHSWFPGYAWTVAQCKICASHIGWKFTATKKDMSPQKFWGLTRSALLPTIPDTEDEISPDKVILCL
- Sequence (Q16531 whole entry partner, the tested form may be a part): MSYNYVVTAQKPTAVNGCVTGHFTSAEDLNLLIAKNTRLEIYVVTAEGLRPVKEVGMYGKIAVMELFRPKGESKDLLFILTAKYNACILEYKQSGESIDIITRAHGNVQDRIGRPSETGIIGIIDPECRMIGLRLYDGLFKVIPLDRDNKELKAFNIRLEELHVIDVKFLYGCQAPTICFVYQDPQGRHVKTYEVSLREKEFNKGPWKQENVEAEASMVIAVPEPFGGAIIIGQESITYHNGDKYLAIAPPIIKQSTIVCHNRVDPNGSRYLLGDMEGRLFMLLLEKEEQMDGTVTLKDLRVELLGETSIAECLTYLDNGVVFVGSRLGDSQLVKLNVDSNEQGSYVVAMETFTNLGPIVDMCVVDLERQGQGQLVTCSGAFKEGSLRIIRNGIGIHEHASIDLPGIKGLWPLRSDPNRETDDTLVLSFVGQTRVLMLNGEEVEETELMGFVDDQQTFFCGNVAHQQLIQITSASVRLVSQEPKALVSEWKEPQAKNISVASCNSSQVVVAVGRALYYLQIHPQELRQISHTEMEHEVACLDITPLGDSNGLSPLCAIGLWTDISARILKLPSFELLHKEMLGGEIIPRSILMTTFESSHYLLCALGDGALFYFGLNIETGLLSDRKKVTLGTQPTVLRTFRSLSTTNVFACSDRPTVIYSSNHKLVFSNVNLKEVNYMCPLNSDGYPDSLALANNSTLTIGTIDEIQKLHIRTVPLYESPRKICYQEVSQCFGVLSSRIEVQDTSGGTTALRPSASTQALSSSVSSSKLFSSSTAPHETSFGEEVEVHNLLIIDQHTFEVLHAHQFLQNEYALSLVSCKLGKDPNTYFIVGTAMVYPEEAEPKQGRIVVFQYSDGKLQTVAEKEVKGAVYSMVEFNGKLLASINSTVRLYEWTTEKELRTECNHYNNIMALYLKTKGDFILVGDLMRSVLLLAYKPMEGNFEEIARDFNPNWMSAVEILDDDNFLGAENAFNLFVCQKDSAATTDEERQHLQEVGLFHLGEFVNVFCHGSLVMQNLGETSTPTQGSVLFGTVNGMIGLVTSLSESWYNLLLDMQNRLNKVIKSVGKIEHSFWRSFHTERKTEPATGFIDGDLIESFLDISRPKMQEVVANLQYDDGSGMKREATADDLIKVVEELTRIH
- Experimental Details: Quantification of WIZ protein levels in HiBit tag fusion protein assay (WIZ HiBit assay in 293T cells)
- Type: cell-based
- Run Conditions: HEK-293T, DMSO-normalized, curve-fitted percentage of WIZ-HiBit remaining at 25 uM; 293T cells; read-out: WIZ Amax
Measured remaining activity at 25 µM, listed per entry.

Molecule: O=C1CCN(c2cnn3ccc(CN4CCN(CCc5ccccc5)CC4)cc23)C(=O)N1
remaining activity at 25 µM / %: 24

Molecule: O=C1CCN(c2cnn3ccc(CN4CCN(CC5CCOC5)CC4)cc23)C(=O)N1 (stereo not shown)
remaining activity at 25 µM / %: 23

Molecule: C[C@H]1C[C@H](Cc2ccn3ncc(N4CCC(=O)NC4=O)c3c2)CCN1Cc1cccnc1
remaining activity at 25 µM / %: 10

Molecule: CC(C)CN1CC[C@H](Cc2ccn3ncc(N4CCC(=O)NC4=O)c3c2)C[C@H]1C
remaining activity at 25 µM / %: 14

----------
Measured Dmax at 25 µM, listed per entry.
- Target Under Test: WIZ protein (HiBit-WIZ fusion protein) (Homo sapiens, UniProt O95785+Q96SW2)
- Construct: expressed in transfected cells
- Experimental Details: Quantification of WIZ protein levels in HiBit tag fusion protein assay (WIZ HiBit assay in 293T cells)
- Format: cell-based
- Run Conditions: HEK-293T, 100 − Amax, at 25 uM; 293T cells; read-out: % degradation of WIZ (100 − Amax)

Smiles Entry: C[C@H]1CN(Cc2ccn3ncc(N4CCC(=O)NC4=O)c3c2)CCN1CC1CC1
Dmax at 25 µM / %: 78
--
Smiles Entry: O=C1CCN(c2cnn3ccc(CN4CCN(CCc5ccccc5)CC4)cc23)C(=O)N1
Dmax at 25 µM / %: 76
--
Smiles Entry: CC[C@H]1CN(Cc2ccn3ncc(N4CCC(=O)NC4=O)c3c2)CCN1CC(C)C
Dmax at 25 µM / %: 55
--
Smiles Entry: CC(C)CN1CCN(Cc2ccn3ncc(N4CCC(=O)NC4=O)c3c2)[C@H](C)C1
Dmax at 25 µM / %: 66
--
Smiles Entry: CC(C)(F)CN1CCC(Cc2ccn3ncc(N4CCC(=O)NC4=O)c3c2)CC1
Dmax at 25 µM / %: 71
--
Smiles Entry: O=C1CCN(c2cnn3ccc(CN4CCN(CC(F)(F)F)CC4)cc23)C(=O)N1
Dmax at 25 µM / %: 52
--
Smiles Entry: C[C@H]1C[C@H](Cc2ccn3ncc(N4CCC(=O)NC4=O)c3c2)CCN1S(=O)(=O)N1CCCC1
Dmax at 25 µM / %: 83
--
Smiles Entry: C[C@H]1CN(Cc2ccn3ncc(N4CCC(=O)NC4=O)c3c2)CCN1C[C@H]1CCC(F)(F)C1
Dmax at 25 µM / %: 78

----------
- Target Under Test: WIZ protein (HiBit-WIZ fusion protein) (Homo sapiens, UniProt O95785+Q96SW2)
- Construct: expressed in transfected cells
- Experimental Details: Quantification of WIZ protein levels in HiBit tag fusion protein assay (WIZ HiBit assay in 293T cells)
- Type: cell-based
- Run Conditions: HEK-293T, DMSO-normalized, curve-fitted percentage of WIZ-HiBit remaining at 25 uM; 293T cells; read-out: WIZ Amax

Smiles Entry: C[C@H]1CN(Cc2ccn3ncc(N4CCC(=O)NC4=O)c3c2)CCN1C1CC2(C1)CN(S(C)(=O)=O)C2
Scale Unit: %
remaining activity at 25 µM: 17
--
Smiles Entry: C[C@H]1C[C@H](Cc2ccn3ncc(N4CCC(=O)NC4=O)c3c2)CCN1C1COC1
Scale Unit: %
remaining activity at 25 µM: 9
--
Smiles Entry: CC(C)(CN1CCC(Cc2ccn3ncc(N4CCC(=O)NC4=O)c3c2)CC1)C(F)(F)F
Scale Unit: %
remaining activity at 25 µM: 27
--
Smiles Entry: CO[C@H]1CC[C@@H](CN2CCN(Cc3ccn4ncc(N5CCC(=O)NC5=O)c4c3)CC2)CC1
Scale Unit: %
remaining activity at 25 µM: 19

----------
- Target Under Test: WIZ protein (HiBit-WIZ fusion protein) (Homo sapiens, UniProt O95785+Q96SW2)
- Construct: expressed in transfected cells
- Experimental Details: Quantification of WIZ protein levels in HiBit tag fusion protein assay (WIZ HiBit assay in 293T cells)
- Assay type: cell-based
- Run Conditions: HEK-293T, DMSO-normalized, curve-fitted percentage of WIZ-HiBit remaining at 25 uM; 293T cells; read-out: WIZ Amax

Compound: CC(C)CN1CCC(F)(Cc2ccn3ncc(N4CCC(=O)NC4=O)c3c2)CC1
remaining activity at 25 µM / %: 42
--
Compound: O=C1CCN(c2cnn3ccc(CC4CCN(S(=O)(=O)c5ccccc5)CC4)cc23)C(=O)N1
remaining activity at 25 µM / %: 26
--
Compound: C[C@H]1CN(CC2CC(F)(F)C2)CCN1Cc1ccn2ncc(N3CCC(=O)NC3=O)c2c1
remaining activity at 25 µM / %: 55
--
Compound: O=C1CCN(c2cnn3ccc(CN4CCN5CCOC[C@@H]5C4)cc23)C(=O)N1
remaining activity at 25 µM / %: 36
--
Compound: O=C1CCN(c2cnn3ccc(CC4C[C@H]5CC[C@@H](C4)N5Cc4cccnc4)cc23)C(=O)N1 (some centres unmarked)
remaining activity at 25 µM / %: 43
--
Compound: COc1ccccc1CN1CCC(Cc2ccn3ncc(N4CCC(=O)NC4=O)c3c2)CC1
remaining activity at 25 µM / %: 45
--
Compound: CC(C)CN1CCN(Cc2ccn3ncc(N4CCC(=O)NC4=O)c3c2)C[C@@H]1C
remaining activity at 25 µM / %: 16
--
Compound: CC(C)CN1CCN(Cc2ccn3ncc(N4CCC(=O)NC4=O)c3c2)[C@H](C)C1
remaining activity at 25 µM / %: 34
--
Compound: CC(C)(C1CCOCC1)N1CCN(Cc2ccn3ncc(N4CCC(=O)NC4=O)c3c2)CC1
remaining activity at 25 µM / %: 33
--
Compound: CC(C)N1CCC(Cc2ccn3ncc(N4CCC(=O)NC4=O)c3c2)CC1
remaining activity at 25 µM / %: 28
--
Compound: C[C@H]1CN(CC2CCCO2)CCN1Cc1ccn2ncc(N3CCC(=O)NC3=O)c2c1 (some centres unmarked)
remaining activity at 25 µM / %: 68
--
Compound: COC[C@H]1CN(Cc2ccn3ncc(N4CCC(=O)NC4=O)c3c2)CCN1CC(C)C
remaining activity at 25 µM / %: 48
--
Compound: CC(C)S(=O)(=O)N1C[C@H]2C[C@@H]1CN2Cc1ccn2ncc(N3CCC(=O)NC3=O)c2c1
remaining activity at 25 µM / %: 100
--
Compound: C[C@H]1CN(Cc2ccn3ncc(N4CCC(=O)NC4=O)c3c2)CCN1C(=O)C1CCCC1
remaining activity at 25 µM / %: 54
--
Compound: O=C1CCN(c2cnn3ccc(CC4CCN(CCc5c[nH]cn5)CC4)cc23)C(=O)N1
remaining activity at 25 µM / %: 34
--
Compound: C[C@@H]1C[C@H](Cc2ccn3ncc(N4CCC(=O)NC4=O)c3c2)CCN1CC1CCCCC1
remaining activity at 25 µM / %: 19
--
Compound: COCC(F)(F)CN1CCN(Cc2ccn3ncc(N4CCC(=O)NC4=O)c3c2)C[C@@H]1C
remaining activity at 25 µM / %: 48

----------
- Target Under Test: WIZ protein (HiBit-WIZ fusion protein) (Homo sapiens, UniProt O95785+Q96SW2)
- Construct: expressed in transfected cells
- Experimental Details: Quantification of WIZ protein levels in HiBit tag fusion protein assay (WIZ HiBit assay in 293T cells)
- Assay type: cell-based
- Run Conditions: HEK-293T, 100 − Amax, at 25 uM; 293T cells; read-out: % degradation of WIZ (100 − Amax)
Measured Dmax at 25 µM, listed per entry.
Measured Attribute: Dmax at 25 µM (%)

Smiles Entry: O=C1CCN(c2cnn3ccc(CC4CCN(CCO)CC4)cc23)C(=O)N1
Numeric Value: 73

Smiles Entry: Cc1c(F)cccc1CN1CCC(Cc2ccn3ncc(N4CCC(=O)NC4=O)c3c2)CC1
Numeric Value: 70

Smiles Entry: C[C@H]1C[C@H](Cc2ccn3ncc(N4CCC(=O)NC4=O)c3c2)CCN1C1COC1
Numeric Value: 91

Smiles Entry: O=C1CCN(c2cnn3ccc(CN4CCN(CC5CCCC5)CC4)cc23)C(=O)N1
Numeric Value: 81

----------
Measured Dmax at 25 µM, listed per entry.
- Target Under Test: WIZ protein (HiBit-WIZ fusion protein) (Homo sapiens, UniProt O95785+Q96SW2)
- Construct: expressed in transfected cells
- Experimental Details: Quantification of WIZ protein levels in HiBit tag fusion protein assay (WIZ HiBit assay in 293T cells)
- Type: cell-based
- Run Conditions: HEK-293T, 100 − Amax, at 25 uM; 293T cells; read-out: % degradation of WIZ (100 − Amax)

Compound: COCC(F)(F)CN1CCN(Cc2ccn3ncc(N4CCC(=O)NC4=O)c3c2)C[C@@H]1C [Example 328]
Dmax at 25 µM (%): 52
--
Compound: C[C@@H]1CN(CC2CCOCC2)CCN1Cc1ccn2ncc(N3CCC(=O)NC3=O)c2c1 [Example 219]
Dmax at 25 µM (%): 75
--
Compound: C[C@H]1CN(Cc2ccn3ncc(N4CCC(=O)NC4=O)c3c2)CCN1C[C@H]1CC[C@H](O)CC1 [Example 201]
Dmax at 25 µM (%): 88
--
Compound: O=C1CCN(c2cnn3ccc(CN4CCN(CCC5CCOCC5)CC4)cc23)C(=O)N1 [Example 161]
Dmax at 25 µM (%): 80
--
Compound: C[C@H]1CN(Cc2ccn3ncc(N4CCC(=O)NC4=O)c3c2)CCN1C1CCOCC1 [Example 330]
Dmax at 25 µM (%): 82
--
Compound: COc1ccc(CN2CCC(Cc3ccn4ncc(N5CCC(=O)NC5=O)c4c3)CC2)cc1 [Example 61]
Dmax at 25 µM (%): 62
--
Compound: Cn1cnc(CN2CCC(Cc3ccn4ncc(N5CCC(=O)NC5=O)c4c3)CC2)c1 [Example 116]
Dmax at 25 µM (%): 39
--
Compound: CC(C)CN1CCN(Cc2ccn3ncc(N4CCC(=O)NC4=O)c3c2)C[C@@H]1C(F)F [Example 247]
Dmax at 25 µM (%): 15
